Biological target: Kelch-like ECH-associated protein 1 (Homo sapiens) (UniProt Q14145)
Sequence (Q14145 whole entry, looked up): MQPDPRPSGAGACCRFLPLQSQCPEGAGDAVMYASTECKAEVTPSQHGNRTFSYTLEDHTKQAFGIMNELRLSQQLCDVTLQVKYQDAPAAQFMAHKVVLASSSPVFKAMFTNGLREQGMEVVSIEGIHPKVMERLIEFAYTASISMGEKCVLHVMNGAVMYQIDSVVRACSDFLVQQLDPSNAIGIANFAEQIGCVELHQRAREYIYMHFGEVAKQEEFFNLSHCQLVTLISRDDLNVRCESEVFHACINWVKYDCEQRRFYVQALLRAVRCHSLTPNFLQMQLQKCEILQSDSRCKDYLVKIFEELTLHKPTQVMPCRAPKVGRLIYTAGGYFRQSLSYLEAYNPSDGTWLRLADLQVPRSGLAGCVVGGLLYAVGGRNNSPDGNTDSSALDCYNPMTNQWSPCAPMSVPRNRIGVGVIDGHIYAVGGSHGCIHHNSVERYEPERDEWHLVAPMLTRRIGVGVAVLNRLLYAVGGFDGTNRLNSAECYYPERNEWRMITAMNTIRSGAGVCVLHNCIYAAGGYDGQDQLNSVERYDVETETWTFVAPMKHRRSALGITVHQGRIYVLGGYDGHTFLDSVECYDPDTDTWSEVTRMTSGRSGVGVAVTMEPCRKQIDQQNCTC
Experiment: competitive SPR blockade of Keap1/Nrf2 binding – biophysical, dry powder, orthogonal assay for Keap1-Nrf2 interaction inhibitor project, confirmation (AID 651876)
Settings: Keap1 Kelch binding to Nrf2 peptide, at 50 µM, hits give high values
Mark 0.0 for inhibition values under 40%, and 1.0 for everything at or above.

{"COMPOUND": "O=C(NCCc1ccccc1)c1ccccc1C(=O)NC[C@@H]1c2ccccc2CCN1C(=O)C1CCCCC1C(=O)O (stereo not given in full)", "DISCRETE LABEL": 1.0}
{"COMPOUND": "O=C(NC[C@@H]1c2ccccc2CCN1C(=O)[C@@H]1CCCC[C@@H]1C(=O)O)OCC1c2ccccc2-c2ccccc21", "DISCRETE LABEL": 0.0}
{"COMPOUND": "O=C(NCCCN1CCOCC1)c1ccccc1C(=O)NC[C@@H]1c2ccccc2CCN1C(=O)C1CCCCC1C(=O)O (stereo not given in full)", "DISCRETE LABEL": 1.0}
{"COMPOUND": "CC(C)OC(=O)C(C(=O)C(F)(F)F)c1cc(NS(=O)(=O)c2ccccc2)c2ccccc2c1O (stereo not given)", "DISCRETE LABEL": 1.0}
{"COMPOUND": "O=C1c2ccccc2C(=O)N1CC1=NCCc2ccccc21", "DISCRETE LABEL": 0.0}

Just for reference, PubChem BioAssay AID651876 is where these values come from.
